# methodDescription: NCI Yeast Anticancer Drug Screen. Data for the mec2-1 strain (AID 157)
# measurementContext: S. cerevisiae mec2-1 strain, at 50.0 µM
About 79,000 compounds went through this panel and 15% of them were active in at least one assay; those are over-represented in the sample as a whole. The source made the active and inactive calls. Rule as the data show it: active = growth inhibition above about 70%; inactive = the rest.
Outcome codes: active, inactive

>>> discretelabel("Cc1cc2c(cc1C(=O)CCC(=O)O)CC1(C2)Cc2cc(C)c(C(=O)CCC(=O)O)cc2C1")
"inactive"
>>> discretelabel("Fc1ccc(NC(=S)SCc2ccc3c(c2)OCO3)cc1F")
"active"
>>> discretelabel("COc1cc(C2C3=C(COC3=O)Oc3cc4c(cc32)OCO4)ccc1O (stereo not drawn)")
"inactive"
>>> discretelabel("CCCCCCCCCCCCCCCCCCOCC(O)COP(=O)(O)OCC1OC(n2cc(F)c(=O)[nH]c2=O)CC1O (stereo not drawn)")
"active"
>>> discretelabel("Cn1c(N)nc(-c2ccc(Cl)cc2)c1SSc1c(-c2ccc(Cl)cc2)nc(N)n1C")
"active"
>>> discretelabel("CC(C)/C(Cl)=N\\OC(=O)Nc1ccccc1F")
"active"
>>> discretelabel("CC[n+]1ccc2c(C)c3[nH]c4ccc(O)cc4c3c(C)c2c1")
"inactive"
>>> discretelabel("O=Cc1cccc2ccc3ccccc3c12")
"active"
>>> discretelabel("COc1cc2c3c(cccc3c1)C(=O)N(CCN(C)C)C2=O")
"inactive"
>>> discretelabel("Cc1ccc(Cl)c2[nH]c(-c3ccccc3)cc(=O)c12")
"inactive"
>>> discretelabel("CCOP(=O)(OCC)C(Cc1ccccc1)N=C(c1ccccc1)c1ccccc1 (stereo not drawn)")
"active"
>>> discretelabel("BrCC[P+](c1ccccc1)(c1ccccc1)c1ccccc1")
"active"
>>> discretelabel("N/C(=N\\OC(=O)NC(Cl)=C(Cl)Cl)c1cc(C(F)(F)F)cc(C(F)(F)F)c1")
"active"
>>> discretelabel("Oc1ccc2ccccc2c1C(c1ccc(Cl)cc1)c1c(O)ccc2ccccc12")
"active"
>>> discretelabel("NCCNc1ccc(NCCN)c2c1C(=O)c1c(O)ccc(O)c1C2=O")
"inactive"
>>> discretelabel("COc1ccc(O)c(/C=N\\Nc2ccccc2)c1")
"active"
>>> discretelabel("COc1ccc(-c2cn(-c3ccc(I)cc3)c3ncnc(N)c23)cc1")
"inactive"
>>> discretelabel("O=[N+]([O-])c1ccc2nc3ccccc3cc2c1")
"inactive"
>>> discretelabel("CC(=O)Cc1ccc[cH-]1.[Fe+2].c1cc[cH-]c1")
"inactive"
>>> discretelabel("CCN(CC)C(C)(C)C(=O)/C=C/c1ccccc1")
"inactive"
>>> discretelabel("O=[N+]([O-])c1cccc2nc3ccccc3c(NCCCN3CCOCC3)c12")
"active"
>>> discretelabel("C=C1CC(Cn2cc(Br)c(=O)[nH]c2=O)(c2ccc(-c3ccccc3)cc2)OC1=O (stereo not drawn)")
"active"
>>> discretelabel("CCN(CC)CCN1C(=O)c2cccc3cc(OC)cc(c23)C1=O")
"inactive"
